Tested on: biotinyl-Val-oxazolone
Assay: self-aminoacylation, catalytic enhancement (BVO) (fold over background); higher = more active; k-Seq, kA / k0A0; sequences stand for … in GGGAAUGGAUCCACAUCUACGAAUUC…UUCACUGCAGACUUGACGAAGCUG
This sample holds only a part of the variants without activity.
# self-aminoacylation annotations
Write the value as a bare number.

Recorded self-aminoacylation, per entry:
{"seq": "AUGUUUGCUAAUAGUCACAAG [Fam3.1 aminoacylation ribozyme variant]", "self-aminoacylation": 1.01}
{"seq": "CAACUUCAAAAAAUCGGUCUG [Fam1A.1 aminoacylation ribozyme variant]", "self-aminoacylation": 1.31}
{"seq": "CCACACUUAAAGCAAUCUGUC [Fam1B.1 aminoacylation ribozyme variant]", "self-aminoacylation": 0.676}
{"seq": "CCACAGUUCAAGCAAUCGGGC [Fam1B.1 aminoacylation ribozyme variant]", "self-aminoacylation": 2.42}

Given item CCACACUUCAACGAAUCGGUC [Fam1B.1 aminoacylation ribozyme variant] , the value recorded as its self-aminoacylation is 1.09

Given item AUUCAUCUAAGUCAUCGGGUG [Fam2.2 aminoacylation ribozyme variant] , the value recorded as its self-aminoacylation is 5.64

Given item CUACUUCAUACAAUCGUUCUG [Fam1A.1 aminoacylation ribozyme variant] , the value recorded as its self-aminoacylation is 0.655

Given item CUACUUCAAAUACUCGGUCUG [Fam1A.1 aminoacylation ribozyme variant] , the value recorded as its self-aminoacylation is 0.84

* * *

Tested on: biotinyl-Met-oxazolone
Test: self-aminoacylation, catalytic enhancement (BMO) (fold over background); higher = more active; k-Seq, kA / k0A0; sequences stand for … in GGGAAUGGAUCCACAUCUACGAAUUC…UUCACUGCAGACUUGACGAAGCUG
Fewer inactive variants are shown than the library holds.
Label rule, in plain words: self-aminoacylation of 3 and up is Y, under 3 is N.

{"seq": "GUACUUCAAACAACCGGUCUG [Fam1A.1 aminoacylation ribozyme variant]", "label": "N"}
{"seq": "UCACACUUCAAGCAAUCGAUC [Fam1B.1 aminoacylation ribozyme variant]", "label": "N"}
{"seq": "AUUACCCUGCUCAUCGCGUGA [Fam2.1 aminoacylation ribozyme variant]", "label": "Y"}
{"seq": "AUUACCAUCGUCAUCGAGUGA [Fam2.1 aminoacylation ribozyme variant]", "label": "Y"}
{"seq": "AUUACCCUGGUGGUCGAGUGA [Fam2.1 aminoacylation ribozyme variant]", "label": "N"}

Does AUUACCCUAGUCAUCGAGUGC [Fam2.1 aminoacylation ribozyme variant] have a reported self-aminoacylation of at least 3?
N

Does AUUACCACGGUCAUCGAGUGA [Fam2.1 aminoacylation ribozyme variant] have a reported self-aminoacylation of at least 3?
Y

Does ACUCACCUAGGUCAUCGGAUG [Fam2.2 aminoacylation ribozyme variant] have a reported self-aminoacylation of at least 3?
N

Does GUUCACCUAGGUGAUCGGGUG [Fam2.2 aminoacylation ribozyme variant] have a reported self-aminoacylation of at least 3?
Y

* * *

Test system: biotinyl-Phe-oxazolone
Experiment: self-aminoacylation, catalytic enhancement (BFO) (fold over background); higher = more active; k-Seq, kA / k0A0; sequences stand for … in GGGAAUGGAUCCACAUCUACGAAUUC…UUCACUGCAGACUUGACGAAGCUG
Variants at the floor of the assay were thinned out.
Label rule, in plain words: self-aminoacylation of 4 and up is condition met, under 4 is condition not met.

{"seq": "AAGUUUGCUAAUAGGGGCAAG [Fam3.1 aminoacylation ribozyme variant]", "label": "condition not met"}
{"seq": "GUACUUCAAACAAUUGGUCUG [Fam1A.1 aminoacylation ribozyme variant]", "label": "condition not met"}
{"seq": "AAGUUUGCUAAUGGUCCCAAG [Fam3.1 aminoacylation ribozyme variant]", "label": "condition not met"}
{"seq": "AUUCACCAAGGUCUUCGGGUG [Fam2.2 aminoacylation ribozyme variant]", "label": "condition met"}
{"seq": "CCACACGUCAAGCGAUCGGUC [Fam1B.1 aminoacylation ribozyme variant]", "label": "condition not met"}

Does AUUACCCUGGUUAUCAAGUGA [Fam2.1 aminoacylation ribozyme variant] have a reported self-aminoacylation of at least 4?
condition met

Does CUACUUCAAACAAUCGGUCCA [Fam1A.1 aminoacylation ribozyme variant] have a reported self-aminoacylation of at least 4?
condition not met

Does AUUAACCUUGUCAUCGAGUGA [Fam2.1 aminoacylation ribozyme variant] have a reported self-aminoacylation of at least 4?
condition met

Provenance of the data: the supplement of paper PMC9233669
